Each recorded value in this set is attributed to patent US12043613B2.

Task for the reader: assign each of the following compounds its reported IC50.
# target or system: SARM1 (ARM-SAM-TIR, full length SARM1) (Homo sapiens, UniProt Q6SZW1)
# Sequence (Q6SZW1 with tags, fused parts or gaps): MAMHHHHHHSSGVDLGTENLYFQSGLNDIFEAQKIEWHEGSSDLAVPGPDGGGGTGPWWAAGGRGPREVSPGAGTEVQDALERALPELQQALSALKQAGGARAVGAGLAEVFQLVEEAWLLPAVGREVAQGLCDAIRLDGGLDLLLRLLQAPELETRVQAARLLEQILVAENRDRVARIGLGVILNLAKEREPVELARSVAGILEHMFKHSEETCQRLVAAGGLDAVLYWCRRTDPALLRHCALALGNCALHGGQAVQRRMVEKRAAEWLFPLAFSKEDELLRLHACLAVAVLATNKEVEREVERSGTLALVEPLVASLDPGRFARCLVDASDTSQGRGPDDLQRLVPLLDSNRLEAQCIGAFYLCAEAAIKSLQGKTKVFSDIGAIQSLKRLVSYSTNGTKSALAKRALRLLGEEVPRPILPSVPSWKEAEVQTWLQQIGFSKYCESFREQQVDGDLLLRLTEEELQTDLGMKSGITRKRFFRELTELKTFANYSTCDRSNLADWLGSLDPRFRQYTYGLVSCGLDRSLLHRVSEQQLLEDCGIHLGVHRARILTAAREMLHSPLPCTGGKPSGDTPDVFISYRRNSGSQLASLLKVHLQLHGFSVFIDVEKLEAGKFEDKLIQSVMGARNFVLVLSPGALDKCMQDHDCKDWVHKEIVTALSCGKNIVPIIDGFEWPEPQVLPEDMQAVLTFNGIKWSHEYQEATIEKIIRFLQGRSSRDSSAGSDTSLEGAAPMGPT
# experiment: biochemical
# condition notes: SARM1 IC50 (nM), ARM-SAM-TIR lysate 5 μg/mL from NRK1-HEK293T cells, 2 h pre-incubation, 5 uM NAD+, 2 hr room temperature

Problem: State its IC50 for this compound: N#Cc1cc(CC2CCCN(c3cc(-c4ccncc4)n[nH]3)C2=O)ccc1Cl (centres unmarked)
Solution: 51 to 100 nM

Problem: Give a short answer stating reported IC50 for Cc1c(N2CCC(Cc3ccc(Cl)cc3)C2=O)n[nH]c1-c1ccncc1 (centres unmarked) [Compound I-6] .
Solution: 51 to 100 nM

Problem: Query IC50 for N#Cc1ccc(CC2CCN(c3[nH]nc(-c4ccncc4)c3F)C2=O)cc1F (single isomer, unassigned) [I-25* (peak 2)]
Solution: < 50 nM

Problem: Quick one: give measured IC50 for O=C1[C@@H](Cc2ccc(Cl)cc2)NCCN1c1cc(-c2ccncc2)n[nH]1
Solution: > 1000 nM

Problem: Look up and report measured IC50 for this entry: O=C1N(c2nc(-c3ccncc3)n[nH]2)CCC1(F)Cc1ccc(Cl)nc1 (centres unmarked) [Compound I-42]
Solution: > 1000 nM

Problem: Quote IC50 reported for CC1(Cc2ccc(Cl)cc2)CCCN(c2nc(-c3ccncc3)n[nH]2)C1=O (single isomer, unassigned) [I-54* (peak 1)] please.
Solution: 501 to 1000 nM

Problem: Specify IC50 for N[C@H]1CC(Cc2ccc(Cl)nc2)C(=O)N(c2cc(-c3ccncc3)n[nH]2)C1 (single isomer, unassigned) [I-60* (peak 1)] and stop.
Solution: > 1000 nM

Problem: Output IC50 of O=C1C(Cc2cnc(Cl)c(F)c2)CCN1c1cc(-c2ccncc2)n[nH]1 (centres unmarked) [Compound I-65]
Solution: < 50 nM

Problem: Look up and report measured IC50 for this entry: O=C1C(Cc2ccc(Cl)nc2)NCN1c1cc(-c2ccncc2)n[nH]1 (centres unmarked)
Solution: 501 to 1000 nM

Problem: State its IC50 for this compound: O=C1C(Cc2ccc(Cl)nc2)CCCN1c1cc(-c2ccncc2)n[nH]1 (single isomer, unassigned) [I-21* (peak 1)]
Solution: 101 to 500 nM

Problem: Entry CC1(Cc2ccc(Cl)nc2)CCCN(c2nnc(-c3ccncc3)[nH]2)C1=O (centres unmarked) needs its IC50 filled in; supply it.
Solution: 501 to 1000 nM

====

For each record, write down the corresponding IC50.
# target or system: UniProt:Q6SZW1
# experiment: biochemical
# condition notes: SARM1 IC50 (nM), ARM-SAM-TIR lysate 5 μg/mL from NRK1-HEK293T cells, 2 h pre-incubation, 5 uM NAD+, 2 hr room temperature

Problem: Supply reported IC50 belonging to this compound: O=C1C(Cc2ccc(F)cc2)CCN1c1nnc(-c2ccncc2)[nH]1 (stereo not drawn) [Compound I-7]
Solution: 101 to 500 nM

Problem: Read the entry O=C1C(Cc2ccc(C(F)(F)F)nc2)CCCN1c1cc(-c2ccncc2)n[nH]1 (stereo not drawn) [Compound I-96] and write its reported IC50.
Solution: 101 to 500 nM

Problem: Please look at this compound and report its IC50: O=C1C(Cc2ccc(Cl)c(F)c2)CCCN1c1cc(-c2ccncc2)n[nH]1 (stereo not drawn) [Compound I-20]
Solution: < 50 nM

Problem: Assign IC50 to the following record: O=C1C(Cc2ccc(Cl)cc2)CNCCN1c1nc(-c2ccncc2)n[nH]1 (single isomer, unassigned) [I-38* (peak 1)]
Solution: 501 to 1000 nM

Problem: Specify measured IC50 for O=C1C(Cc2ccc(Cl)cc2)OCCN1c1cc(-c2ccncc2)n[nH]1 (stereo not drawn) [Compound I-47] .
Solution: 51 to 100 nM

Problem: Give a short answer stating reported IC50 for O=C1C(Cc2ccc(F)c(F)c2)CCN1c1cc(-c2ccncc2)n[nH]1 (single isomer, unassigned) [I-16* (peak 1)] .
Solution: < 50 nM

Problem: Identify measured IC50 corresponding to O=C1C(Cc2ccc(Cl)nc2)CCN1c1nnc(-c2ccncc2)[nH]1 (single isomer, unassigned) [I-9* (peak 1)]
Solution: 101 to 500 nM

Problem: Identify IC50 associated with the compound O=C1C(Cc2ccc(Cl)cc2)OCCN1c1cc(-c2ccncc2)n[nH]1 (single isomer, unassigned) [I-47* (peak 2)]
Solution: > 1000 nM

Problem: Note down IC50 recorded for Cc1c(N2CCC(Cc3ccc(Cl)cc3)C2=O)n[nH]c1-c1ccncc1 (single isomer, unassigned) [I-6* (peak 1)]
Solution: 51 to 100 nM

Problem: Tell me measured IC50 for N#Cc1ccc(CC2CCN(c3[nH]nc(-c4ccncc4)c3F)C2=O)cc1F (stereo not drawn) [Compound I-25] please.
Solution: 101 to 500 nM

Problem: Look up and state reported IC50 for N[C@H]1CC(Cc2ccc(Cl)nc2)C(=O)N(c2cc(-c3ccncc3)n[nH]2)C1 (stereo partly drawn) [Compound I-60]
Solution: 501 to 1000 nM

Problem: Identify measured IC50 associated with N[C@H]1CC(Cc2ccc(Cl)nc2)C(=O)N(c2nnc(-c3ccncc3)[nH]2)C1 (single isomer, unassigned) [Compound I-61]
Solution: > 1000 nM

Problem: Could you please provide reported IC50 for N#Cc1ccc(CC2CCN(c3cc(-c4ccncc4)n[nH]3)C2=O)cc1F (single isomer, unassigned) [I-37* (peak 1)] ? Thanks!
Solution: 51 to 100 nM

Problem: Give IC50 for O=C1C(Cc2ccc(F)nc2)CCCN1c1nnc(-c2ccncc2)[nH]1 (stereo not drawn) [Compound I-23]
Solution: < 50 nM

Problem: Fill in IC50 for record Cc1c(-c2ccncc2)n[nH]c1N1CCC(Cc2ccc(F)c(F)c2)C1=O (single isomer, unassigned) [I-49* (peak 1)]
Solution: 101 to 500 nM
